Where these numbers come from: paper PMC12392461

- experimental-protocol: physchem
- stated-conditions: pKa (Acid)
- Protocol: Physicochemical properties provide input parameters for the baseline toxicity model. Acidity constants (pK a) and octanol–water partition constants of the neutral species (K ow) were measured with a Sirius T instrument from Pion Inc. (Sussex, UK) (Text S1.2 and Table S1). […] (Roth, A994-100 ML) and 25 µL of phosphate buffer was analyzed alongside each sample. The pKa values were determined using the automated UV-metric pKa protocol within the Sirius T3 Control software (version 2.0.0.0.). […]
result-type: pKa
When you answer, write just the number.

get_value(item= Oc1ccc(Cc2ccc(O)cc2)cc1 [BPF, Bis(4-hydroxyphenyl)methane] , readout=pKa) returns 9.53

get_value(item= CC(c1ccc(O)cc1)c1ccc(O)cc1 , readout=pKa) returns 9.04

get_value(item= CC(C)(c1cc(Cl)c(O)c(Cl)c1)c1cc(Cl)c(O)c(Cl)c1 , readout=pKa) returns 7.08

get_value(item= CC(c1ccccc1)(c1ccc(O)cc1)c1ccc(O)cc1 , readout=pKa) returns 9.1

get_value(item= O=S(=O)(c1ccc(O)cc1)c1ccc(O)cc1 , readout=pKa) returns 7.28

get_value(item= Oc1ccc(C(c2ccc(O)cc2)(C(F)(F)F)C(F)(F)F)cc1 , readout=pKa) returns 9.43

get_value(item= CC(C)(c1ccc(O)cc1)c1ccc(O)cc1 [BPA, 4,4'-(Propane-2,2-diyl)diphenol, reference compound] , readout=pKa) returns 8.78

get_value(item= O=S(=O)(c1ccc(O)cc1)c1ccccc1O [2,4-BPS, 2,4'-Dihydroxydiphenyl sulfone] , readout=pKa) returns 7.31

get_value(item= CCC(C)(c1ccc(O)cc1)c1ccc(O)cc1 , readout=pKa) returns 9.53

---

- Tested on: HEK293T (ERα)
- stated-conditions: Bioassay ERα; cytotoxicity; dosing range high; linear model fit
result-type: IC10, linear
When you answer, write just the number.

get_value(item= COC(=O)C(c1ccc(O)cc1)c1ccc(O)cc1 [Bz, Methyl bis(4-hydroxyphenyl)acetate] , readout=IC10, linear) returns 1.01E-03

get_value(item= O=S(=O)(c1ccc(O)cc1)c1ccc(O)cc1 [BPS, 4,4'-Sulfonyldiphenol] , readout=IC10, linear) returns 5.20E-04

---

- target-of-assay: Estrogen Receptor ERα (Homo sapiens, UniProt P03372)
- Sequence (P03372 311-547 limits assumed): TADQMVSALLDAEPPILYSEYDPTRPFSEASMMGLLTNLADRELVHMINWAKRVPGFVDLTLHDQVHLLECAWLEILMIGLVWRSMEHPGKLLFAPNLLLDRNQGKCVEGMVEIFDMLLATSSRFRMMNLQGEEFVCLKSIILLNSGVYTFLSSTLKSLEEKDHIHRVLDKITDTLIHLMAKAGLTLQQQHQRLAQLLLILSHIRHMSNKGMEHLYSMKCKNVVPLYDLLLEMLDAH
- experimental-protocol: aCYP oxidation followed by ERα-UAS-bla GripTite assay (TK-Ratio of effect);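 note: EC10 before oxidation divided by EC10 after oxidation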
- Type: cell-based
- stated-conditions: Table S11; TKERα-Ratio
result-type: TKERα

get_value(item= Oc1ccc(Cc2ccc(O)cc2)cc1 [BPF, Bis(4-hydroxyphenyl)methane] , readout=TKERα) returns 0.93

get_value(item= Oc1ccc(Sc2ccc(O)cc2)cc1 , readout=TKERα) returns 0.85

get_value(item= CC(C)(c1ccc(O)cc1)c1ccc(O)cc1 [BPA, 4,4'-(Propane-2,2-diyl)diphenol, reference compound] , readout=TKERα) returns 1.22

get_value(item= CC(C)c1cc(C(C)(C)c2ccc(O)c(C(C)C)c2)ccc1O , readout=TKERα) returns 0.64

---

- experimental-protocol: Abiotic CYP (aCYP) oxidation, remaining parent compound (Cparent-Ratio)
- stated-conditions: Table S9, replicate 2
What Cparent-Ratio Rep.2 % was measured for each of the following?
Response body: numeric value in %, unit text excluded.

get_value(item= COC(=O)C(c1ccc(O)cc1)c1ccc(O)cc1 [Bz, Methyl bis(4-hydroxyphenyl)acetate] , readout=Cparent-Ratio Rep.2 %) returns 100.34

get_value(item= Cc1ccc(S(=O)(=O)NC(=O)Nc2ccc(Cc3ccc(NC(=O)NS(=O)(=O)c4ccc(C)cc4)cc3)cc2)cc1 , readout=Cparent-Ratio Rep.2 %) returns 33.79

get_value(item= CC(C)(c1ccc(O)c(-c2ccccc2)c1)c1ccc(O)c(-c2ccccc2)c1 [BPPH, 2,2-Bis(2-hydroxy-5-biphenylyl)propane] , readout=Cparent-Ratio Rep.2 %) returns 66.60

get_value(item= O=S(=O)(c1ccc(O)cc1)c1ccccc1O , readout=Cparent-Ratio Rep.2 %) returns 100.98

get_value(item= CC(C)c1cc(C(C)(C)c2ccc(O)c(C(C)C)c2)ccc1O , readout=Cparent-Ratio Rep.2 %) returns 102.05

---

- Test system: Mitochondrial Membrane Potential
- experimental-protocol: cells
- stated-conditions: Arec32, read-out: logEC10
result-type: log10 of EC10 (log10 of the value in µM)
For clarity, the numbers are log10 values of EC10 expressed in µM.

Given the compound O=S(=O)(c1ccc(O)cc1)c1ccc(O)cc1 and test system Mitochondrial Membrane Potential, the measured log10 of EC10 is 2.07

Given the compound Oc1ccc(C(c2ccc(O)cc2)(C(F)(F)F)C(F)(F)F)cc1 and test system Mitochondrial Membrane Potential, the measured log10 of EC10 is 0.73

Given the compound CCC(C)(c1ccc(O)cc1)c1ccc(O)cc1 and test system Mitochondrial Membrane Potential, the measured log10 of EC10 is 1.21

Given the compound Oc1ccc(Sc2ccc(O)cc2)cc1 and test system Mitochondrial Membrane Potential, the measured log10 of EC10 is 1.26

Given the compound O=S(=O)(c1ccc(O)cc1)c1ccc(OCc2ccccc2)cc1 [BPS-MPE, 4-[4-(benzyloxy)benzenesulfonyl]phenol] and test system Mitochondrial Membrane Potential, the measured log10 of EC10 is 0.75

Given the compound O=C(OCc1ccccc1)c1ccc(O)cc1 [BzPB, Benzyl 4-hydroxybenzoate] and test system Mitochondrial Membrane Potential, the measured log10 of EC10 is 1.39

Given the compound CC(C)(c1cc(Cl)c(O)c(Cl)c1)c1cc(Cl)c(O)c(Cl)c1 and test system Mitochondrial Membrane Potential, the measured log10 of EC10 is 1.17

Given the compound Oc1ccc(C2(c3ccc(O)cc3)CCCCC2)cc1 [BPZ, 1,1'-Bis(4-hydroxyphenyl)cyclohexane] and test system Mitochondrial Membrane Potential, the measured log10 of EC10 is 1.34

---

- Test system: HEK293H, HEK293T, H4IIe, MCF7 and SH-SY5Y cells
- stated-conditions: median IC10 relative to BPA
What cytotoxicity,median REPBPA,IC10 was measured for each of the following?
When you answer, write just the number.

Given the molecule CC1(C)[C@H](O)C(C)(C)[C@H]1O and test system HEK293H, HEK293T, H4IIe, MCF7 and SH-SY5Y cells, the measured cytotoxicity,median REPBPA,IC10 is 0.00783

Given the molecule O=C(OCc1ccccc1)c1ccc(O)cc1 [BzPB, Benzyl 4-hydroxybenzoate] and test system HEK293H, HEK293T, H4IIe, MCF7 and SH-SY5Y cells, the measured cytotoxicity,median REPBPA,IC10 is 0.53

Given the molecule C=CCOc1ccc(S(=O)(=O)c2ccc(O)cc2)cc1 [BPS-MAE, 4-[[4-(Allyloxy)phenyl]sulfonyl]phenol] and test system HEK293H, HEK293T, H4IIe, MCF7 and SH-SY5Y cells, the measured cytotoxicity,median REPBPA,IC10 is 0.37

Given the molecule CC(C)c1cc(C(C)(C)c2ccc(O)c(C(C)C)c2)ccc1O and test system HEK293H, HEK293T, H4IIe, MCF7 and SH-SY5Y cells, the measured cytotoxicity,median REPBPA,IC10 is 8.93

Given the molecule COC(=O)C(c1ccc(O)cc1)c1ccc(O)cc1 [Bz, Methyl bis(4-hydroxyphenyl)acetate] and test system HEK293H, HEK293T, H4IIe, MCF7 and SH-SY5Y cells, the measured cytotoxicity,median REPBPA,IC10 is 0.19

Given the molecule CCC(C)(c1ccc(O)cc1)c1ccc(O)cc1 and test system HEK293H, HEK293T, H4IIe, MCF7 and SH-SY5Y cells, the measured cytotoxicity,median REPBPA,IC10 is 1.93

Given the molecule Oc1ccc(Cc2ccc(O)cc2)cc1 [BPF, Bis(4-hydroxyphenyl)methane] and test system HEK293H, HEK293T, H4IIe, MCF7 and SH-SY5Y cells, the measured cytotoxicity,median REPBPA,IC10 is 0.17

Given the molecule CC(C)(c1cc(Cl)c(O)c(Cl)c1)c1cc(Cl)c(O)c(Cl)c1 and test system HEK293H, HEK293T, H4IIe, MCF7 and SH-SY5Y cells, the measured cytotoxicity,median REPBPA,IC10 is 0.89

Given the molecule CC(c1ccccc1)(c1ccc(O)cc1)c1ccc(O)cc1 and test system HEK293H, HEK293T, H4IIe, MCF7 and SH-SY5Y cells, the measured cytotoxicity,median REPBPA,IC10 is 2.12

Given the molecule CC(C)(c1ccc(OCC2CO2)cc1)c1ccc(OCC2CO2)cc1 (centres unmarked) and test system HEK293H, HEK293T, H4IIe, MCF7 and SH-SY5Y cells, the measured cytotoxicity,median REPBPA,IC10 is 1.82

Given the molecule Oc1ccc(Sc2ccc(O)cc2)cc1 and test system HEK293H, HEK293T, H4IIe, MCF7 and SH-SY5Y cells, the measured cytotoxicity,median REPBPA,IC10 is 0.74

Given the molecule Cc1ccc(S(=O)(=O)NC(=O)Nc2ccc(Cc3ccc(NC(=O)NS(=O)(=O)c4ccc(C)cc4)cc3)cc2)cc1 and test system HEK293H, HEK293T, H4IIe, MCF7 and SH-SY5Y cells, the measured cytotoxicity,median REPBPA,IC10 is 2.26

Given the molecule Oc1ccc(C2(c3ccc(O)cc3)CCCCC2)cc1 [BPZ, 1,1'-Bis(4-hydroxyphenyl)cyclohexane] and test system HEK293H, HEK293T, H4IIe, MCF7 and SH-SY5Y cells, the measured cytotoxicity,median REPBPA,IC10 is 1.33

Given the molecule Cc1ccc(S(=O)(=O)NC(=O)Nc2cccc(OS(=O)(=O)c3ccc(C)cc3)c2)cc1 and test system HEK293H, HEK293T, H4IIe, MCF7 and SH-SY5Y cells, the measured cytotoxicity,median REPBPA,IC10 is 3.67

Given the molecule Oc1ccc(C(c2ccc(O)cc2)(C(F)(F)F)C(F)(F)F)cc1 and test system HEK293H, HEK293T, H4IIe, MCF7 and SH-SY5Y cells, the measured cytotoxicity,median REPBPA,IC10 is 3.07

Given the molecule CC(C)Oc1ccc(S(=O)(=O)c2ccc(O)cc2)cc1 and test system HEK293H, HEK293T, H4IIe, MCF7 and SH-SY5Y cells, the measured cytotoxicity,median REPBPA,IC10 is 0.21

Given the molecule CC(c1ccc(O)cc1)c1ccc(O)cc1 and test system HEK293H, HEK293T, H4IIe, MCF7 and SH-SY5Y cells, the measured cytotoxicity,median REPBPA,IC10 is 0.88
